Cited source for all entries: ChEMBL document CHEMBL3596191

- assayNotes: Selectivity ratio of Ki for human alpha-carbonic anhydrase 2 to Ki for Leishmania donovani chagasi beta-carbonic anhydrase
endpointName: Ratio Ki

Can you share its Ratio Ki? I mean this molecule: NS(=O)(=O)c1ccc(/N=C/c2ccccc2)c(F)c1
0.3

Entry NS(=O)(=O)c1ccc(CC/N=C/c2c(F)c(F)cc(F)c2F)cc1 has what Ratio Ki?
6.1

Give its Ratio Ki value. Item: NS(=O)(=O)c1ccc(/N=C/c2ccc(-c3ccccc3)cc2)c(F)c1
3.2

Entry NS(=O)(=O)c1ccc(/N=C/c2ccc(-c3ccccn3)cc2)cc1 has what Ratio Ki?
0.5

Reported Ratio Ki, molecule NS(=O)(=O)c1ccc(/N=C/c2ccco2)c(F)c1 : ____
0.4

Fill in the blank: the reported Ratio Ki of NS(=O)(=O)c1ccc(CC/N=C/c2ccc(-c3ccccc3)cc2)cc1 is ____.
1.3

What value of measured Ratio Ki is listed for NS(=O)(=O)c1ccc(/N=C/c2ccc(Br)cc2O)cc1 ?
< 0.3

Query: Ratio Ki; subject: CSc1ccc(/C=N/CCc2ccc(S(N)(=O)=O)cc2)cc1
3.3

For NS(=O)(=O)c1ccc(CC/N=C/c2ccc(-c3ccccn3)cc2)cc1 , what is its reported Ratio Ki?
0.3

Quick one: Ratio Ki for COc1cc([N+](=O)[O-])ccc1/C=N/CCc1ccc(S(N)(=O)=O)cc1 ?
0.09

Which Ratio Ki value belongs to COc1ccc(/C=N/CCc2ccc(S(N)(=O)=O)cc2)c(O)c1 ?
3.7

I am curious: what Ratio Ki value has been reported for NS(=O)(=O)c1ccc(CC/N=C/c2c[nH]c3ccc(Br)cc23)cc1 ?
0.3

Would you mind telling me what Ratio Ki value was observed for NS(=O)(=O)c1ccc(CC/N=C/c2ccc(S(=O)(=O)O)o2)cc1 ?
0.3

Give its Ratio Ki value. Item: NS(=O)(=O)c1ccc(CC/N=C/c2cccc(Br)c2O)cc1
> 7.9

Give the measured Ratio Ki of NS(=O)(=O)c1ccc(CC/N=C/c2ccc(Br)cc2O)cc1 .
0.3

What value of measured Ratio Ki is listed for N#Cc1ccc(/C=N/CCc2ccc(S(N)(=O)=O)cc2)cc1 ?
0.5

Entry NS(=O)(=O)c1ccc(/N=C/c2csc3ccccc23)cc1 : reported Ratio Ki = ?
0.5

* * *

- assayNotes: Selectivity ratio of Ki for human alpha-carbonic anhydrase 1 to Ki for Brucella suis beta-carbonic anhydrase 1
endpointName: Ratio Ki
Output spec: single numeric token, no unit.

Return reported Ratio Ki; argument: NS(=O)(=O)c1ccc(/N=C/c2ccc(-c3ccccn3)cc2)cc1
4.6

Name the reported Ratio Ki value associated with the compound NS(=O)(=O)c1ccc(/N=C/c2csc3ccccc23)cc1
3

Record request: Ratio Ki value, item NS(=O)(=O)c1ccc(CC/N=C/c2c[nH]c3ccc(Br)cc23)cc1
70.2

Field request: Ratio Ki | item: NS(=O)(=O)c1ccc(/N=C/c2ccc(Br)cc2O)cc1
6.9

Name the reported Ratio Ki value associated with the compound NS(=O)(=O)c1ccc(/N=C/c2ccccc2)c(F)c1
43.2

Which Ratio Ki value belongs to NS(=O)(=O)c1ccc(CC/N=C/c2ccc(-c3ccccn3)cc2)cc1 ?
2.5

* * *

- Tested on: Brucella suis
- assayNotes: Potency index, ratio of acetazolamide Ki to compound Ki for Brucella suis beta-carbonic anhydrase 2
endpointName: Ratio Ki
Give your answer as a number; write no unit.

Consider the compound shown here: NS(=O)(=O)c1ccc(CC/N=C/c2c[nH]c3ccc(Br)cc23)cc1 What is its recorded Ratio Ki?
100

Looking for the measured Ratio Ki of COc1cc([N+](=O)[O-])ccc1/C=N/CCc1ccc(S(N)(=O)=O)cc1 , can you help?
2

Request the reported Ratio Ki associated with NS(=O)(=O)c1ccc(/N=C/c2ccco2)c(F)c1
2

Name the recorded Ratio Ki for COc1ccc(/C=N/CCc2ccc(S(N)(=O)=O)cc2)c(O)c1 .
10
